assay-system: BRG-1 (Homo sapiens, UniProt P51532)
Construct: made in house; host or cells: High Five insect cells
Sequence (P51532 whole entry): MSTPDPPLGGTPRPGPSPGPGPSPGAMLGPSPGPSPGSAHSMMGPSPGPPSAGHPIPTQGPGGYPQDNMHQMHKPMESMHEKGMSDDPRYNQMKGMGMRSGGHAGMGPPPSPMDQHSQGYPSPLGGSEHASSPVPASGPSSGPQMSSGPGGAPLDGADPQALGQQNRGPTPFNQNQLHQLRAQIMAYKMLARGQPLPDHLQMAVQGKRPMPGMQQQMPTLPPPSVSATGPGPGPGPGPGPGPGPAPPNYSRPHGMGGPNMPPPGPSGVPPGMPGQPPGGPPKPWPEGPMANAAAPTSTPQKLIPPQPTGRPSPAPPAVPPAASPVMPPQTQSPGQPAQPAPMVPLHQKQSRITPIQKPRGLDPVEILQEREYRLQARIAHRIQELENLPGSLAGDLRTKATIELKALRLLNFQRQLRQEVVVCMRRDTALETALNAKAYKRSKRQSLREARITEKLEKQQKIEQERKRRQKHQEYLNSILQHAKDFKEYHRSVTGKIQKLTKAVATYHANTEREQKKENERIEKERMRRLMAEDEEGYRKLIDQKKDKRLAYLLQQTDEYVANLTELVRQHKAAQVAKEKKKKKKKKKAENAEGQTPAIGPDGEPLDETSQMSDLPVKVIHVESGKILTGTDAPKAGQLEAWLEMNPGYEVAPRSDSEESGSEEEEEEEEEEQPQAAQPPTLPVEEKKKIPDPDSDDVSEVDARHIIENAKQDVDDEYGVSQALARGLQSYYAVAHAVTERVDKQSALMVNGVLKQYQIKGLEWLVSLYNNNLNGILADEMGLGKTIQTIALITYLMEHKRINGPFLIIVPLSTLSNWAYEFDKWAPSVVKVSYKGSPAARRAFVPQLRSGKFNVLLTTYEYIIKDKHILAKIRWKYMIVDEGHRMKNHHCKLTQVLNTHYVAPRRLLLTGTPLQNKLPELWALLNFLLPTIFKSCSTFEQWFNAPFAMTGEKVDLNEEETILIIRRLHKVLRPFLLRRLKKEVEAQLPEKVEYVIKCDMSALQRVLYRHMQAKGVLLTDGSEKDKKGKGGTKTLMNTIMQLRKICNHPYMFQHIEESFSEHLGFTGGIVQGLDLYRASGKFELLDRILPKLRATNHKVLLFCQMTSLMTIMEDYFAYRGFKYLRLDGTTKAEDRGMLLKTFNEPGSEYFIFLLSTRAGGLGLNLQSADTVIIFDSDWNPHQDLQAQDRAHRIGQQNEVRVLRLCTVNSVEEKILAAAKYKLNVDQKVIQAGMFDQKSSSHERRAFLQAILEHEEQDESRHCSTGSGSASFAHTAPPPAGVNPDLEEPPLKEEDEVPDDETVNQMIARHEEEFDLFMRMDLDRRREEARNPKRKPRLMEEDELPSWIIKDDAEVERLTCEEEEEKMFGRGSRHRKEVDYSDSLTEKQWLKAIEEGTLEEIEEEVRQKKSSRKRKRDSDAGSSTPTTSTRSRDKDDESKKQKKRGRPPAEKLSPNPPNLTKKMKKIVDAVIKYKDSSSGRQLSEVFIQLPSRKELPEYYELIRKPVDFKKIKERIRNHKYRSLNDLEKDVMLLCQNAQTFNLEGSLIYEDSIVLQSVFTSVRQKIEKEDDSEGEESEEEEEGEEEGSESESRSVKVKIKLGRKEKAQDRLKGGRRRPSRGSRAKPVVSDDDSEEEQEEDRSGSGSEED
assay-method-text: ATPase catalytic activity of BRG-1, ADP-Glo in vitro biochemical assay
condition-notes: ATPase catalytic activity, 30 nM BRG-1, 400 μM ATP, read-out: BRG1 IP50 (μM)*
The compounds listed here are annotated with their IC50.

Worked examples follow.
structure_notation=CN(C)c1cccc(-c2csc(NC(=O)CNC(=O)c3ccn(S(C)(=O)=O)c3)n2)c1 result="> 0.01 µM"
structure_notation=C[C@H](NC(=O)c1ccn(S(C)(=O)=O)c1)C(=O)Nc1nc(-c2cccc(-c3ccncc3)c2)cs1 result="< 0.01 µM"
structure_notation=Cn1ccc(-c2cccc(-c3csc(NC(=O)CNC(=O)c4ccn(C(C)(C)CO)c4)n3)c2)n1 result="> 0.01 µM"
structure_notation=CS(=O)(=O)n1ccc(C(=O)NCC(=O)Nc2nc(-c3cccc(N4CC(O)(C(F)(F)F)C4)c3)cs2)c1 result="> 0.1 µM"
structure_notation=CO[C@H]1C[C@H](Oc2cccc(-c3csc(NC(=O)CNC(=O)c4ccn(S(C)(=O)=O)c4)n3)c2)C1 result="> 0.01 µM"

Sample `C[C@@H]1CN(c2cc(-c3csc(NC(=O)CNC(=O)c4ccn(S(C)(=O)=O)c4)n3)cc(C3CC3)c2)C[C@H](C)O1` — what was its IC50?
> 0.1 µM

State the recorded IC50 for this entry: `CNC(=O)CN(C)c1cc(-c2cccc(-c3csc(NC(=O)CNC(=O)c4ccn(S(C)(=O)=O)c4)n3)c2)ccn1`
< 0.01 µM

====

assay-system: BRM (Homo sapiens, UniProt P51531)
Construct: made in house; host or cells: High Five insect cells
Sequence (P51531 whole entry): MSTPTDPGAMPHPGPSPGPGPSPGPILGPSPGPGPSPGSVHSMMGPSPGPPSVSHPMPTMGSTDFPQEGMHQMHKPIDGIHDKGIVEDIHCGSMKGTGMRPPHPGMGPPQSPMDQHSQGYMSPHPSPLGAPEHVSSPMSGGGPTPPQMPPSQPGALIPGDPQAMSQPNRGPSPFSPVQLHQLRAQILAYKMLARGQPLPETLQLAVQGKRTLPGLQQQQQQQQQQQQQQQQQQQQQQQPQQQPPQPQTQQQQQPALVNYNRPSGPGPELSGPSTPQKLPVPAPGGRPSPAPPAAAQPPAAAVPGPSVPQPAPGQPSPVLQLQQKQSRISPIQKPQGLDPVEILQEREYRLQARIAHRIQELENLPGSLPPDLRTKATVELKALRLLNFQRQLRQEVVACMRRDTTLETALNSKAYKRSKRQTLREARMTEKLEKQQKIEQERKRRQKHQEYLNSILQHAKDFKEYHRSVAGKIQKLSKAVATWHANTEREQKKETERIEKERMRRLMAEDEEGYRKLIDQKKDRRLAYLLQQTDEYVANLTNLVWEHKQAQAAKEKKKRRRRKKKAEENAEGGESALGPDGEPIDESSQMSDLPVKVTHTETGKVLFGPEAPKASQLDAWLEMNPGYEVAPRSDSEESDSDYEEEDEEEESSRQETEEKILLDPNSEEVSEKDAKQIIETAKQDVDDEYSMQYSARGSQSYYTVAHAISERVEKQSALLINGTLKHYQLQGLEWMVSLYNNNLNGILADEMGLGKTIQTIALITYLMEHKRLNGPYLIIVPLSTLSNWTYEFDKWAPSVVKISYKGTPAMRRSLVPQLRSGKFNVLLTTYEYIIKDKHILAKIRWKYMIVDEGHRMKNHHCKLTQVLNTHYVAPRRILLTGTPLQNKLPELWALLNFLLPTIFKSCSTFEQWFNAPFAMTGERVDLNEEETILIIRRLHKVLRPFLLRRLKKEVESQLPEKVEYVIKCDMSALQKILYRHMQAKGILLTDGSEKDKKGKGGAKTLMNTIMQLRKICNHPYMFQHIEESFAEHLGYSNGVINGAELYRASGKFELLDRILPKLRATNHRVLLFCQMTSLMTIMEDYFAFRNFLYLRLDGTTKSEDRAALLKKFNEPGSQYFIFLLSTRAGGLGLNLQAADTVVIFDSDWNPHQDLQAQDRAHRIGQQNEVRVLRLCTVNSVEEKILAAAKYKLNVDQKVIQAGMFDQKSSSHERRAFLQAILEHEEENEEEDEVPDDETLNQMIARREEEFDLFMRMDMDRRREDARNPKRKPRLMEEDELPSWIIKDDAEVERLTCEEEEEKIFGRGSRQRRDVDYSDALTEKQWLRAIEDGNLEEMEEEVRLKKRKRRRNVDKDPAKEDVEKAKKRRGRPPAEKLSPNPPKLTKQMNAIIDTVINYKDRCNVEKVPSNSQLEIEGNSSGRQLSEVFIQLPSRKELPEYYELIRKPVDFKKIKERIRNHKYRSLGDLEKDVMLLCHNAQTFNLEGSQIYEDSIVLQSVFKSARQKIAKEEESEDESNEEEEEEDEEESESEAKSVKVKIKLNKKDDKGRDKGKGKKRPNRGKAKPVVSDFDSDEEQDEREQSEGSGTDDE
assay-method-text: ATPase catalytic activity of BRM, ADP-Glo in vitro biochemical assay
condition-notes: ATPase catalytic activity, 30 nM BRM, 400 μM ATP, read-out: BRM IP50 (μM)*
measurement-name: IC50

Some solved cases for reference:
structure_notation=CC1(C)OCC12CN(c1cccc(-c3csc(NC(=O)CNC(=O)c4ccn(S(C)(=O)=O)c4)n3)c1)C2 measurement_name=IC50 result="> 0.1 µM"
structure_notation=CS(=O)(=O)n1ccc(C(=O)NCC(=O)Nc2nc(-c3cccc(N4CC[C@H](O)[C@H](F)C4)c3)cs2)c1 measurement_name=IC50 result="< 0.01 µM"
structure_notation=C[C@@H]1CN(c2cccc(-c3csc(NC(=O)CNC(=O)c4ccn(C5(C#N)CC5)c4)n3)c2)C[C@H](C)O1 measurement_name=IC50 result="< 0.01 µM"

In the following, a different compound is considered.
Provide the documented IC50 with BRM (Homo sapiens, UniProt P51531) as the system for `CO[C@H]1CCCN(c2cccc(-c3csc(NC(=O)CNC(=O)c4ccn(C5(C)COC5)c4)n3)n2)C1`
> 0.1 µM

====

assay-system: BRM (Homo sapiens, UniProt P51531)
Construct: made in house; host or cells: High Five insect cells
assay-method-text: ATPase catalytic activity of BRM, ADP-Glo in vitro biochemical assay
condition-notes: ATPase catalytic activity, 30 nM BRM, 400 μM ATP, read-out: BRM IP50
pIC50: −log10 of the molar value.
measurement-name: pIC50

structure_notation=CN1CCc2c(F)ccc(-c3csc(NC(=O)CNC(=O)c4ccn(S(C)(=O)=O)c4)n3)c21 result="< 8.00"

So what does the record say about pIC50 for `COCC[C@H](NC(=O)c1ccn(C(C)(C)C)c1)C(=O)Nc1nc(-c2ccc3ccn(C)c(=O)c3c2)cs1` ?
< 8.00

// query pIC50 value for entry `Cn1ncc(-c2cccc(-c3csc(NC(=O)CNC(=O)c4ccn(C5(C)COC5)c4)n3)n2)n1`
< 8.00

Bench note: what pIC50 did `CO[C@H]1C[C@@H](c2cccc(-c3csc(NC(=O)CNC(=O)c4ccn(S(C)(=O)=O)c4)n3)c2)C1` show?
< 8.00

GET /values?readout=pIC50&item= `C[C@@H]1CN(c2cccc(-c3csc(NC(=O)CNC(=O)c4ccn([C@]5(C)CC5(F)F)c4)n3)n2)C[C@H](C)O1`
> 8.00

Look at this molecule and give its reported pIC50. `COC[C@H](NC(=O)c1ccn(S(C)(=O)=O)c1)C(=O)Nc1nc(-c2cc(F)c3c(c2)N(C)CC3)cs1`
> 8.00

Give its pIC50 value. Item: `CC(C)(F)COc1cccc(-c2csc(NC(=O)CNC(=O)c3ccn(C4(C#N)CC4)c3)n2)n1`
< 7.00

Fill in the blank: the reported pIC50 of `COC(=O)N1CCC[C@H](c2csc(NC(=O)CNC(=O)c3ccn(C(C)(C)C)c3)n2)C1` is ____.
< 7.00

What measured pIC50 goes with `Cc1nnc(C2CCN(c3cccc(-c4csc(NC(=O)CNC(=O)c5ccn(C(C)(C)C)c5)n4)n3)CC2)o1` ?
< 8.00

# query: pIC50 of entry `N#CC1(n2ccc(C(=O)NCC(=O)Nc3nc(-c4cccc(N5CCC5)c4)cs3)c2)CC1`
< 8.00
